Just for reference, patent US20220275067A1 is where these values come from.

Please provide measured kon for the entries that follow.
Target: T1, recombinant human 4R0N tau (human, UniProt P10636 2-758)
T1 construct: also called recombinant 4R0N human tau; P10636-6
T1 sequence (P10636 other isoform, or with tags, fused parts or gaps limits assumed): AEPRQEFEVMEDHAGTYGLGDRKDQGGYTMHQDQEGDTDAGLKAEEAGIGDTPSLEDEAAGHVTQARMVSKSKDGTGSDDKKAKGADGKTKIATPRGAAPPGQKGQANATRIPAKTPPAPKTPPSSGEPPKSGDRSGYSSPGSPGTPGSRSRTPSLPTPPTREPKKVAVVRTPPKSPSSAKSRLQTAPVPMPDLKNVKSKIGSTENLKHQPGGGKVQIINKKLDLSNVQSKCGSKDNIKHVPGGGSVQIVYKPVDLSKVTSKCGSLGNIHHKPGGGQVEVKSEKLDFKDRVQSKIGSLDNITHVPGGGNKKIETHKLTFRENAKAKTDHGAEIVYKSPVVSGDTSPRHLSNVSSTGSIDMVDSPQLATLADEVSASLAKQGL
Experiment: SPR Biacore T200; antibody captured by anti-human Fc; tau as analyte; global 1:1 fit
Write down the numeric answer in M⁻¹ s⁻¹ and omit the unit.

Return reported kon. Input binder: hu9F5VHv9/hu9F5VLv8_DIM10 (antibody, V domains shown) VH: EVQLVQSGAEVKKPGATVKISCKASGFNIKDDYMNWVQQRPGKGLEWIGWIDPENGDTEYASKFQGRATMTADTSTNTAYMELSSLRSEDTAVYYCTTSNGWGQGTLVTVSS VL: DIQMTQSPFSLPVTPGESASISCRSSKSLSHSNGITYLYWYQQKPGQSPQLLIYQKSNGASGVPNRFSSSGSGTDFTLKISRVEAEDVGVYYCAQNIELPLTFGQGTKLEIK
1.89e+07

Item hu9F5VHv10/hu9F5VLv9_DIM19 (antibody, V domains shown) VH: EVQLVQSGAEVKKPGATVKISCKASGFNIKDDYMNWVKQRPEKGLEWIGWIDPENGDTEYASKFQGRATMTADTSTNTAYMELSSLRSEDTAVYYCTTSNGWGQGTLVTVSS VL: DIQMTQSPFSLPVTPGESASISCRSSKSLSHSNGITYLYWYIQKPGQSPQLLIYQISNRASGVPDRFSSSGSGTDFTLKISRVEAEDVGVYYCAQNIELPLTFGQGTKLEIK : provide kon
3.49e+06

Supply recorded kon for hu9F5VHv10/hu9F5VLv9_DIM5 (antibody, V domains shown) VH: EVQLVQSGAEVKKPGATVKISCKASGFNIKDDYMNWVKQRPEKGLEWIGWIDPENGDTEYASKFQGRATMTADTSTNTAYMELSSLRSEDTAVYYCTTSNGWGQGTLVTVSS VL: DIQMTQSPFSLPVTPGESASISCRSSKSLGHSNGITYLYWYQQKPGQSPQLLIYQGSNRASGVPDRFSSSGSGTDFTLKISRVEAEDVGVYYCAQNIELPLTFGQGTKLEIK here.
1.7e+06

Please give the documented kon of hu9F5VHv9/hu9F5VLv8_DIM2 (antibody, V domains shown) VH: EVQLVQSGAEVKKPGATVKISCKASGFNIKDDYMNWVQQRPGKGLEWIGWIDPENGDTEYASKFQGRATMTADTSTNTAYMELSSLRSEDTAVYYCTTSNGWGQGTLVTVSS VL: DIQMTQSPFSLPVTPGESASISCRSSKSLSHSNGITYLYWYQQKPGQSPQLLIYQGSNRASGVPNRFSSSGSGTDFTLKISRVEAEDVGVYYCAQNIELPLTFGQGTKLEIK
1.96e+06

Provide only the value of recorded kon for hu9F5VHv10/hu9F5VLv9_DIM13 (antibody, V domains shown) VH: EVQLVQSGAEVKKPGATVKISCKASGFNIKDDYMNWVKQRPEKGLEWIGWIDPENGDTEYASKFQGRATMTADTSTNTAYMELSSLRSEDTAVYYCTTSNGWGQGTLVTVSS VL: DIQMTQSPFSLPVTPGESASISCRSSKSLGHSNGITYLYWYGQKPGQSPQLLIYQGSNRASGVPDRFSSSGSGTDFTLKISRVEAEDVGVYYCAQNLELPLTFGQGTKLEIK
2.28e+06
